method-summary: Toxicity in po dosed mouse assessed as mortality after 7 days
condition-context: in vivo
Listed next: entries and their corresponding LD50 at 168 h.
readout-kind: LD50 at 168 h

# compound, result
records = [
    ("Cc1cccc(C)c1/N=C(\\NC#N)Nc1cccnc1", "> 1000 mg/kg"),
    ("CCC(C)(C)N/C(=N\\C#N)Nc1cc(-c2ccc(Cl)cc2)nn1C", "> 1000 mg/kg"),
    ("CC(C)(C)N/C(=N\\O)Nc1cccnc1", "1000 mg/kg"),
    ("CC(C)(C)C(C)(C)/N=C(\\NC#N)Nc1ccncc1", "> 1000 mg/kg"),
    ("CCC(C)(C)N/C(=N\\C#N)Nc1ccc[n+]([O-])c1", "> 1000 mg/kg"),
    ("CC(C)(C)/N=C(\\NC#N)Nc1ccccn1", "600 mg/kg"),
    ("CC(C)(C)/N=C(/NC#N)Nc1cccnc1", "> 1000 mg/kg"),
    ("Cc1nn(C)c(N/C(=N/C#N)NC(C)(C)C)c1Cl", "> 1000 mg/kg"),
    ("N#CN/C(=N\\CC1CCCO1)Nc1cccnc1 (stereo unspecified)", "> 1000 mg/kg"),
    ("N#CN/C(=N\\C(C1CC1)C1CC1)Nc1ccncc1", "600 mg/kg"),
    ("CCCC(C)(C)/N=C(\\NC#N)Nc1cccnc1", "> 1000 mg/kg"),
    ("CC(=O)N(/C(=N\\C#N)Nc1cccnc1)C(C)(C)C.O", "> 1000 mg/kg"),
    ("CCC(C)(C)N/C(=N\\C#N)Nc1ccc(OC)cc1", "> 1000 mg/kg"),
    ("CC(C)C(C)(C)/N=C(\\NC#N)Nc1ccncc1", "1000 mg/kg"),
    ("N#CN/C(=N\\c1cccnc1)N1CCCCC1", "> 1000 mg/kg"),
    ("CCC(C)(C)N/C(=N\\S(=O)(=O)c1ccc(C)cc1)Nc1cccnc1", "> 1000 mg/kg"),
    ("Cc1nn(C)c(C)c1N/C(=N/C#N)NC(C)(C)C", "> 1000 mg/kg"),
    ("Cc1cccc(C)c1N/C(=N/C#N)NC(C)(C)C", "> 1000 mg/kg"),
    ("CCC(C)C(C)/N=C(\\NC#N)Nc1ccncc1 (stereo unspecified)", "250 mg/kg"),
    ("CC(C)(C)N/C(=N\\C#N)Nc1c(Cl)cccc1Cl", "> 1000 mg/kg"),
    ("CCC(C)(C)N/C(=N\\C#N)NCCCN(C)C", "> 1000 mg/kg"),
    ("CC1(/N=C(\\NC#N)Nc2cccnc2)CCC1", "> 1000 mg/kg"),
    ("CC(C)(C)/N=C(\\NC#N)Nc1cccnc1Cl", "> 1000 mg/kg"),
    ("CCN(CC)CC/N=C(\\NC#N)Nc1cccnc1", "250 mg/kg"),
    ("Cn1nc(-c2ccc(Cl)cc2)cc1N/C(=N/C#N)NC(C)(C)C", "> 1000 mg/kg"),
    ("CCC(CC)/N=C(\\NC#N)Nc1ccncc1", "200 mg/kg"),
]
